Test system: HeLa cells
Experiment: MTT antiproliferative assay, HeLa
Assay type: cell-based, human
Settings: Homo sapiens, read-out: In vitro antiproliferative activity IC50, HeLa
pIC50: −log10 of the molar value.
VALUE TYPE: pIC50

[ask] State its pIC50 on HeLa cells: COc1ccc(/C=N/NC(=O)c2ccc(N3N=C(c4ccc(Cl)c(Cl)c4)CC3c3ccc4ccccc4c3)cc2)cc1 (stereo not drawn)
[reply] 4.50

[P] COc1cccc(/C=N/NC(=O)c2ccc(N3N=C(c4ccc(F)cc4)CC3c3ccc4ccccc4c3)cc2)c1 (stereo not drawn)
[Q] COc1cccc(/C=N/NC(=O)c2ccc(N3N=C(c4ccc(Cl)c(Cl)c4)CC3c3ccc4ccccc4c3)cc2)c1 (stereo not drawn)
[ask] Select the item whose pIC50 value is smaller, choosing between P and Q . In your reply, give the label of the chosen option.
[reply] P
(P: 4.25, Q: 4.47)

---

Test system: MCF-7 cells
Test: MTT antiproliferative assay, MCF-7
Assay type: cell-based, human
Conditions: Homo sapiens, MCF7, read-out: In vitro antiproliferative activity IC50, MCF-7
pIC50: −log10 of the molar value.
VALUE TYPE: pIC50

These recorded examples may help you get a feel for the data.
[ask] Reported pIC50 for COc1cccc(/C=N/NC(=O)c2ccc(N3N=C(c4ccccc4F)CC3c3ccc4ccccc4c3)cc2)c1 (stereo not shown) : what is it?
[reply] 4.15

[ask] Reported pIC50 for COc1ccc(/C=N/NC(=O)c2ccc(N3N=C(c4ccccc4F)CC3c3ccc4ccccc4c3)cc2)cc1 (stereo not shown) : what is it?
[reply] 4.18

[1] COc1cccc(/C=N/NC(=O)c2ccc(N3N=C(c4ccc(Cl)c(Cl)c4)CC3c3ccc4ccccc4c3)cc2)c1 (stereo not shown)
[2] COc1cccc(/C=N/NC(=O)c2ccc(N3N=C(c4cc(F)cc(F)c4)CC3c3ccc4ccccc4c3)cc2)c1 (stereo not shown)
[ask] Between 1 and 2 , whose measured pIC50 reads higher? In your reply, give the label of the chosen option.
[reply] 1
(1: 4.45, 2: 4.25)

---

Tested on: HeLa cells
Assay: MTT antiproliferative assay, HeLa
Type: cell-based, human
Conditions: Homo sapiens, read-out: In vitro antiproliferative activity IC50, HeLa
pIC50: −log10 of the molar value.
VALUE TYPE: pIC50

These recorded examples may help you get a feel for the data.
[ask] Reported pIC50 for COc1ccc(/C=N/NC(=O)c2ccc(N3N=C(c4cc(OC)c(OC)c(OC)c4)CC3c3ccc4ccccc4c3)cc2)cc1 (stereo not shown) : what is it?
[reply] 4.03

[ask] Reported pIC50 for COc1cccc(/C=N/NC(=O)c2ccc(N3N=C(c4ccc(Br)cc4)CC3c3ccc4ccccc4c3)cc2)c1 (stereo not shown) : what is it?
[reply] 4.58

[A] CCOc1ccc(C2=NN(c3ccc(C(=O)N/N=C/c4cccc(OC)c4)cc3)C(c3ccc4ccccc4c3)C2)cc1 (stereo not shown)
[B] COc1cccc(/C=N/NC(=O)c2ccc(N3N=C(c4cccc(F)c4)CC3c3ccc4ccccc4c3)cc2)c1 (stereo not shown)
[ask] Select the item whose pIC50 value is smaller, choosing between A and B . In your reply, give the label of the chosen option.
[reply] B

---

Biological target: epidermal growth factor receptor (EGFR) (Homo sapiens, UniProt P00533)
Sequence (P00533 25-1210): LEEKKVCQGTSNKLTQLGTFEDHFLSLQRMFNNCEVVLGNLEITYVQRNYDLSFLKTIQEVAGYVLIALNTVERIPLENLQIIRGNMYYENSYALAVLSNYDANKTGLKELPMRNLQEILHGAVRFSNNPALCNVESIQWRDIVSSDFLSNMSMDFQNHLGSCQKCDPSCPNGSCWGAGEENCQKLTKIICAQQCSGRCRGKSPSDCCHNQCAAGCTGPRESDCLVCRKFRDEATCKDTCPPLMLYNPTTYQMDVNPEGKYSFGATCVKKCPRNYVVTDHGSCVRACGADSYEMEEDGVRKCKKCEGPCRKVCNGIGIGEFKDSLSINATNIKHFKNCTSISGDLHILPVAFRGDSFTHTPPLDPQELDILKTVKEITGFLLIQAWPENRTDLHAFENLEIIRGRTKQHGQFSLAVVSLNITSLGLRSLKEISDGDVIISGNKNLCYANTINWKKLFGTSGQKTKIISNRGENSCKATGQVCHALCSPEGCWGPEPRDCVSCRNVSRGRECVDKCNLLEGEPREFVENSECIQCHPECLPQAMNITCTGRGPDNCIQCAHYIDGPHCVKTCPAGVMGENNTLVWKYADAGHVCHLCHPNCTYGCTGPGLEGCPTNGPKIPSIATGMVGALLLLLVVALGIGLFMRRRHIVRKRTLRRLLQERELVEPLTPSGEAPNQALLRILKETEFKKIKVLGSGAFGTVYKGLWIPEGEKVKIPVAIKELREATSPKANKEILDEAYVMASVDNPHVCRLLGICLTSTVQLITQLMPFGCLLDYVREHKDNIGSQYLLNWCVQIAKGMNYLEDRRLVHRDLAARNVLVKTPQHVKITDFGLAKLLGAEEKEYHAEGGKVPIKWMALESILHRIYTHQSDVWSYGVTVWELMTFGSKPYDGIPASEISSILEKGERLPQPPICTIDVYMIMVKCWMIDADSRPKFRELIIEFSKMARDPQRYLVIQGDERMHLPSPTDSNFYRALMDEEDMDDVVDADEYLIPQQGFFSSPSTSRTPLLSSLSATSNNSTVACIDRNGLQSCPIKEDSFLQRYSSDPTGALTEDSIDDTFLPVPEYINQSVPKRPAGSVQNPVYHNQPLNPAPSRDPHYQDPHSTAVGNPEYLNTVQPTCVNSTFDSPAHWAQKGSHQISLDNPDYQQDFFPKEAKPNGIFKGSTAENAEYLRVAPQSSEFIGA
Assay: EGFR kinase inhibition, solid-phase ELISA assay
Conditions: read-out: Inhibition activity IC50 against EGFR; solid-phase ELISA assay
VALUE TYPE: IC50 (µM)

[ask] Reported IC50 for COc1ccc(/C=N/NC(=O)c2ccc(N3N=C(c4ccccc4)CC3c3ccc4ccccc4c3)cc2)cc1 (stereo not drawn) [Compound H17] : what is it?
[reply] 7.89

[1] COc1ccc(/C=N/NC(=O)c2ccc(N3N=C(c4cccc(C)c4)CC3c3ccc4ccccc4c3)cc2)cc1 (stereo not drawn) [Compound H19]
[2] COc1cccc(/C=N/NC(=O)c2ccc(N3N=C(c4ccccc4)CC3c3ccc4ccccc4c3)cc2)c1 (stereo not drawn) [Compound H1]
[ask] Select the item whose IC50 value is smaller, choosing between 1 and 2 . In your reply, give the label of the chosen option.
[reply] 1
